// data source = patent US9670227B2

Quick reference: IC50 of the listed items.
Target: Mcl-1 protein (UniProtKB primary accession number: Q07820) (Homo sapiens, UniProt Q07820)
Sequence (Q07820 whole entry): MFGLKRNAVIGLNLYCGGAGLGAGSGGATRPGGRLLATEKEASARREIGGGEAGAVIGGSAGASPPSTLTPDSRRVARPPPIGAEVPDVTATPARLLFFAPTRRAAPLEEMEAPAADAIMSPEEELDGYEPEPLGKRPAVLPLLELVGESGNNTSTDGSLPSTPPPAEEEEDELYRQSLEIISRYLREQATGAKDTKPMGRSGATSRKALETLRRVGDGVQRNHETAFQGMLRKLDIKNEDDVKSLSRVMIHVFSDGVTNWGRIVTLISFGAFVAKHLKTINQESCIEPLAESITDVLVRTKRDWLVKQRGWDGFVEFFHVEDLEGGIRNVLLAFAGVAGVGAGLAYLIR
Assay: Inhibition of Mcl-1 by fluorescence polarisation, Method 1
Format: binding
Conditions: fluorescence polarisation test; Method 2 values are underlined in the patent (underlining not visible here); read-out: IC50 (M) Mcl-1 FP

# COMPOUND, IC50, M
measured = [
    ("Cc1c(-c2c(-c3ccc(F)cc3)sc3ncnc(OC(Cc4ccccc4OCc4ccnc(C(C)(C)C)n4)C(=O)O)c23)ccc(OCCN2CCN(C)CC2)c1Cl (stereo not drawn) [Example 23]", "2.4e-08"),
    ("Cc1c(-c2c(-c3ccc(F)cc3)sc3ncnc(OC(Cc4ccccc4OCc4cnccn4)C(=O)O)c23)ccc(OC2CCCN(C)C2)c1Cl (single isomer, unassigned) [Example 141]", "3.1e-08"),
    ("Cc1c(-c2c(-c3ccco3)sc3ncnc(OC(Cc4ccccc4OCc4ccnc(C(F)(F)F)n4)C(=O)O)c23)ccc(OCCN2CCN(C)CC2)c1Cl (stereo not drawn) [Example 248]", "6.9e-09"),
]

---

Biological target: Mcl-1 protein (UniProtKB primary accession number: Q07820) (Homo sapiens, UniProt Q07820)
Assay: Inhibition of Mcl-1 by fluorescence polarisation, Method 1
Type: binding
Details: fluorescence polarisation; Method 1, or Method 2; read-out: IC50 (M) Mcl-1 FP
Quick reference: log10 of IC50 of the listed items.
ASSAY_METRIC: log10 of IC50 (log10 of the value in M)

# COMPOUND, log10 of IC50
data = [
    ("COc1ccccc1C[C@@H](Oc1ncnc2sc(-c3cccc(F)c3F)c(-c3ccc(C#CCN4CCN(C)CC4)c(Cl)c3C)c12)C(=O)O (single isomer, unassigned) [Example 717]", -7.57),
    ("COc1ccccc1CC(Oc1ncnc2sc(-c3cc(F)c(F)c(F)c3F)c(-c3ccc(OCCN4CCN(C)CC4)c(Cl)c3C)c12)C(=O)O (stereo not shown) [Example 525]", -8.48),
    ("CCc1sc2ncnc(OC(Cc3ccccc3)C(=O)O)c2c1-c1cc2c(c(Cl)c1C)OCC(=O)N2 (stereo not shown) [Example 441]", -7.57),
    ("CCc1sc2ncnc(OC(Cc3ccccc3)C(=O)O)c2c1-c1ccc(OCCCc2ccncc2)c(Cl)c1C (stereo not shown) [Example 399]", -7.85),
    ("CCOc1cccc(-c2sc3ncnc(OC(Cc4ccccc4OC)C(=O)O)c3c2-c2ccc(OCCN3CCN(C)CC3)c(Cl)c2C)c1 (stereo not shown) [Example 557]", -8.35),
    ("C=C(C)c1sc2ncnc(O[C@H](Cc3ccccc3)C(=O)O)c2c1-c1cccc(Cl)c1C (single isomer, unassigned) [Example 720]", -7.36),
    ("Cc1c(-c2c(-c3cccs3)sc3ncnc(OC(Cc4ccccc4)C(=O)O)c23)ccc(OCCN2CCN(C)CC2)c1Cl (stereo not shown) [Example 505]", -7.24),
    ("COc1ccccc1CC(Oc1ncnc2sc(-c3cccc(OC)c3F)c(-c3ccc(OCCN4CCN(C)CC4)c(Cl)c3C)c12)C(=O)O (stereo not shown) [Example 561]", -7.57),
    ("COc1ccccc1-c1nccc(COc2ccccc2CC(Oc2ncnc3sc(C#CCCCc4ccccc4)c(-c4ccc(OCCN5CCN(C)CC5)c(Cl)c4C)c23)C(=O)O)n1 (stereo not shown) [Example 783]", -8.97),
    ("CC#Cc1sc2ncnc(OC(Cc3ccccc3OC)C(=O)O)c2c1-c1ccc(OCCN(C)C)c(Cl)c1C (stereo not shown) [Example 467]", -7.96),
    ("Cc1c(Cl)cccc1-c1c(-c2ccco2)sc2ncnc(OC(Cc3ccccc3OCCN3CCN(C)CC3)C(=O)O)c12 (stereo not shown) [Example 667]", -5.68),
    ("CCCCn1nccc1COc1ccccc1CC(Oc1ncnc2sc(-c3ccc(C#N)cc3)c(-c3ccc(OCCN4CCN(C)CC4)c(Cl)c3C)c12)C(=O)O (stereo not shown) [Example 600]", -8.39),
    ("COC(=O)C(Cc1ccccc1OCc1ccnc(-c2ccccc2OC)n1)Oc1ncnc2sc(-c3ccc(F)cc3)c(-c3ccc(OCCN4CCN(C)CC4)c(Cl)c3C)c12 (stereo not shown) [Example 787]", -6.33),
]

---

System: H929 multiple myeloma tumour line
Experiment: In vitro cytotoxicity, Microculture Tetrazolium Assay
Type: cell-based
Conditions: Homo sapiens, NCI-H929, 48 h, H929 cells, 48 hours exposure, MTT; read-out: IC50 (μM) MTT H929
Each record is given 1 if its reported IC50 is strictly below 0.04 µM. Records at or above 0.04 µM are given 0.

# COMPOUND, GROUP_LABEL
records = [
    ("Cc1c(-c2c(-c3ccc(F)cc3)sc3ncnc(OC(Cc4ccccc4OCc4ccn[nH]4)C(=O)O)c23)ccc(OCCN2CCN(C)CC2)c1Cl (stereo not drawn)", 0),
    ("CCCCn1nccc1COc1ccccc1CC(Oc1ncnc2sc(CCCOC)c(-c3ccc(OCCN4CCN(C)CC4)c(Cl)c3C)c12)C(=O)O (stereo not drawn)", 0),
    ("COc1ccccc1-c1nccc(COc2ccccc2CC(Oc2ncnc3sc(-c4ccc(OCc5ccncc5)cc4)c(-c4ccc(OCCN5CCN(C)CC5)c(Cl)c4C)c23)C(=O)O)n1 (stereo not drawn)", 1),
    ("CCCCn1nccc1COc1ccccc1CC(Oc1ncnc2sc(-c3ccc(C#N)cc3)c(-c3ccc(OCCN4CCN(C)CC4)c(Cl)c3C)c12)C(=O)O (stereo not drawn)", 1),
    ("Cc1c(-c2c(-c3ccco3)sc3ncnc(OC(Cc4ccccc4OCc4cccc(N5CCCC5)n4)C(=O)O)c23)ccc(OCCN2CCN(C)CC2)c1Cl (stereo not drawn)", 0),
]

---

Tested on: H929 multiple myeloma tumour line
Assay: In vitro cytotoxicity, Microculture Tetrazolium Assay
Assay type: cell-based
Settings: Homo sapiens, NCI-H929, 48 h, H929 cells, 48 hours exposure, MTT; read-out: IC50 (μM) MTT H929
Each record is given YES if its reported IC50 is strictly below 0.07 µM. Records at or above 0.07 µM are given NO.

# COMPOUND, GROUP_LABEL
data = [
    ("COCCOc1ccccc1CC(Oc1ncnc2sc(-c3ccc(F)cc3)c(-c3ccc(OCCN4CCN(C)CC4)c(Cl)c3C)c12)C(=O)O (stereo not drawn) [Example 104]", "NO"),
    ("Cc1sccc1-c1nccc(COc2ccccc2CC(Oc2ncnc3sc(-c4ccc(F)cc4)c(-c4ccc(OCCN5CCN(C)CC5)c(Cl)c4C)c23)C(=O)O)n1 (stereo not drawn) [Example 121]", "YES"),
    ("Cc1c(-c2c(-c3ccc(F)cc3)sc3ncnc(OC(Cc4ccccc4OCc4ccnc(Cl)c4)C(=O)O)c23)ccc(OCCN2CCN(C)CC2)c1Cl (stereo not drawn) [Example 19]", "YES"),
    ("COc1cc(-c2sc3ncnc(OC(Cc4ccccc4OCc4cnccn4)C(=O)O)c3c2-c2ccc(OCCN3CCN(C)CC3)c(Cl)c2C)ccc1F (stereo not drawn) [Example 386]", "NO"),
    ("Cc1c(-c2c(-c3ccc(F)cc3)sc3ncnc(OC(Cc4ccccc4OCC(F)F)C(=O)O)c23)ccc(OCCN2CCN(C)CC2)c1Cl (stereo not drawn) [Example 4]", "NO"),
    ("Cc1c(-c2c(-c3ccco3)sc3ncnc(OC(Cc4ccccc4OCc4ccnn4-c4ccccc4)C(=O)O)c23)ccc(OCCN2CCN(C)CC2)c1Cl (stereo not drawn) [Example 263]", "NO"),
    ("Cc1c(-c2c(-c3ccc(F)o3)sc3ncnc(OC(Cc4ccccc4OCc4ccnc(-c5cccs5)n4)C(=O)O)c23)ccc(OCCN2CCN(C)CC2)c1Cl (stereo not drawn) [Example 171]", "YES"),
    ("COCCn1nncc1COc1ccccc1CC(Oc1ncnc2sc(-c3ccc(F)cc3)c(-c3ccc(OCCN4CCN(C)CC4)c(Cl)c3C)c12)C(=O)O (stereo not drawn) [Example 97]", "NO"),
    ("CCc1sc2ncnc(OC(Cc3cccc4ccoc34)C(=O)O)c2c1-c1ccc(OCCN2CCN(C)CC2)c(Cl)c1C (stereo not drawn) [Example 461]", "NO"),
    ("COc1ccccc1CC(Oc1ncnc2sc(-c3ccc(C)cc3)c(-c3ccc(OCCN4CCN(C)CC4)c(Cl)c3C)c12)C(=O)O (stereo not drawn) [Example 538]", "NO"),
    ("COc1ccccc1-c1nccc(COc2ccccc2CC(Oc2ncnc3sc(C#CCCCc4ccccc4)c(-c4ccc(OCCN5CCN(C)CC5)c(Cl)c4C)c23)C(=O)O)n1 (stereo not drawn) [Example 783]", "YES"),
    ("Cc1c(-c2c(-c3ccc(F)cc3)sc3ncnc(OC(Cc4ccccc4OCc4ccnc(C(F)(F)F)n4)C(=O)O)c23)ccc(OCCN2CCN(C)CC2)c1Cl (stereo not drawn) [Example 25]", "NO"),
]

---

System: H929 multiple myeloma tumour line
Experiment: In vitro cytotoxicity, Microculture Tetrazolium Assay
Type: cell-based
Settings: Homo sapiens, NCI-H929, 48 h, H929 cells, 48 hours exposure, MTT; read-out: IC50 (μM) MTT H929
Quick reference: log10(IC50) of the listed items.
ASSAY_METRIC: log10(IC50) (log10 of the value in µM)

# MOLECULE, ASSAY_VALUE
measured = [
    ("Cc1c(-c2c(-c3ccco3)sc3ncnc(OC(Cc4ccccc4OCc4ccnc(N(C)C)n4)C(=O)O)c23)ccc(OCCN2CCN(C)CC2)c1Cl (stereo not drawn)", -1.46),
    ("Cc1c(-c2c(-c3ccc(F)cc3)sc3ncnc(OC(Cc4ccccc4OCc4cnccn4)C(=O)O)c23)ccc(OCCCC2CCCN2C)c1Cl (stereo not drawn)", 0.06),
    ("COc1ccccc1CC(Oc1ncnc2sc(-c3ccco3)c(-c3ccc(OCC4CN(C)CCO4)c(Cl)c3C)c12)C(=O)O (stereo not drawn)", 0.26),
    ("CC#Cc1sc2ncnc(OC(Cc3ccccc3OCc3ccnc(OCC(F)(F)F)n3)C(=O)O)c2c1-c1ccc(OCCN2CCN(C)CC2)c(Cl)c1C (stereo not drawn)", -2.40),
    ("CC#Cc1sc2ncnc(OC(Cc3ccccc3OC)C(=O)O)c2c1-c1ccc(OCCN(C)C)c(Cl)c1C (stereo not drawn)", -0.30),
    ("CCCCn1nccc1COc1ccccc1CC(Oc1ncnc2sc(-c3ccc(NCCOC)nc3)c(-c3ccc(OCCN4CCN(C)CC4)c(Cl)c3C)c12)C(=O)O (stereo not drawn)", -0.27),
]
